- Test system: FLT3;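 further: KINOMEscan kinase panel screen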
- EXPERIMENTAL_CONDITIONS: concentration: 1 μM, replicates: in singlicate; n = 1
EXPERIMENTAL_READOUT: %Inh (%)

> print(dat)
                                   compound  endpoint.unit  result
1  CC(=O)Nc1nc2cnc(Nc3cc(NC(=O)c4cccc(CCC#N)c4)ccc3C)nc2s1              %       0
2  CCCc1ccc(S(=O)(=O)NC2CCN(c3ccnc(Nc4ccc(F)cc4)n3)C2)cc1 (centres unmarked) [GSK1379715]              %       0
3  CS(=O)(=O)c1ccc(-c2nc3n(c2-c2ccncc2)CCC3)cc1 [SKF-105942]              %       0
4  Cc1cccc(-c2nc(Nc3ccc4[nH]ncc4c3)c3ccccc3n2)n1 [GW857175]              %      13
5  COc1cc2ncnc(Nc3ccc4nc(-c5ccccc5)[nH]c4c3)c2cc1OC.Cl [GW282450]              %       0

From: paper PMC5540273
